Test system: C. elegans VP596 gst-4::GFP/RFP ratio, acrylamide, 24 h
Assay: gst-4 reporter suppression by analogs in C. elegans – whole organism, GFP/RFP fluorescence ratio, strain VP596, SKN-1 inhibitor project, SAR follow-up (AID 652140)
Calls of active or inactive are those of the source.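 How the source made its calls: active means compounds whose IC50 against the worm SKN-1 reporter ratio signal is 5 µM or lower; inactive means the rest.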
# output must be one of t (active), f (inactive)

Below are worked cases with known answers.
| CHEMICAL STRING | CLASS ASSIGNMENT |
| --- | --- |
| Cc1ccc(-c2csc(-c3cccnc3)n2)cc1 | f |
| COc1ccc(-c2csc(-c3ccncc3)n2)cc1 | f |

For the next question, use this molecule.
(Q) What was the test verdict on CCOc1cc(CNC2CC2)cc(Cl)c1OCc1ccc(F)cc1 ?
(A) t
